- tested.target: Aurora B kinase (Homo sapiens, UniProt Q96GD4)
- Sequence (Q96GD4 whole entry): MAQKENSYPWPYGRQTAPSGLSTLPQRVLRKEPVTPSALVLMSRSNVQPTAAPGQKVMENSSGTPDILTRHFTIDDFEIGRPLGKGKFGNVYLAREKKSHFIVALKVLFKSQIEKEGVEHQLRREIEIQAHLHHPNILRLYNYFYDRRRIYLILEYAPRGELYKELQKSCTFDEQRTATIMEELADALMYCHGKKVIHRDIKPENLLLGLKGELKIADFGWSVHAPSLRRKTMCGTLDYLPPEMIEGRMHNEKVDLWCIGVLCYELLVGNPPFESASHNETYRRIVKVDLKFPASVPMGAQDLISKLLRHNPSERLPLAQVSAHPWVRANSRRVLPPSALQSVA
- assay.procedure: 33PanQinase protein kinase activity assay, Aurora B
- experimental.setup: recombinant human kinase, 1 μM ATP
Collected IC50 values appear next to each entry.

Worked set:
1) O=C1Nc2ccccc2C1=NNc1nc2nonc2nc1Nc1ccccc1 : < 10 µM
2) O=S(=O)(O)c1ccc(C=NNc2nc3nonc3nc2Nc2ccc(F)c(Cl)c2)o1 : < 10 µM
3) O=C(O)c1cccc(-c2ccc(C=NNc3nc4nonc4nc3Nc3cccc(Cl)c3)o2)c1 : < 10 µM

// moving on: another record for IC50
What does the record list as IC50 for COc1cc(C=NNc2nc3nonc3nc2Nc2ccccc2F)cc([N+](=O)[O-])c1O ?
< 10 µM

====

Collected IC50 values appear next to each entry.
- tested.target: SRC kinase (Homo sapiens, UniProt P12931)
- Sequence (P12931 whole entry): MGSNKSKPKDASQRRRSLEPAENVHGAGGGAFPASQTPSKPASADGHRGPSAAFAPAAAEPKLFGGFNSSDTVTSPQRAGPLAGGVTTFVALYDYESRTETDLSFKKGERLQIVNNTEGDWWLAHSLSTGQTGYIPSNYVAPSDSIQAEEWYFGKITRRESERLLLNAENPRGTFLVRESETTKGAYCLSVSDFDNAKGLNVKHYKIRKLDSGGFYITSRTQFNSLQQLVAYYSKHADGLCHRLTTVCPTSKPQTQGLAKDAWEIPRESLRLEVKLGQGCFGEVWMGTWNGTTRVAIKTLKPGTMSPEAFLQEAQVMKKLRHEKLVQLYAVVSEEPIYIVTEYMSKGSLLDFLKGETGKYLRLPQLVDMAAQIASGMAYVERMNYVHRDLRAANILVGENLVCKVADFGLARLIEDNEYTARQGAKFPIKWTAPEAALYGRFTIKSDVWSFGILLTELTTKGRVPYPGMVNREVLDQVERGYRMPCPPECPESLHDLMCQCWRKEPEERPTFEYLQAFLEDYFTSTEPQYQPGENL
- assay.procedure: 33PanQinase protein kinase activity assay, SRC
- experimental.setup: recombinant human kinase, 1 μM ATP

Worked set:
1. O=C(O)c1cccc(-c2ccc(C=NNc3nc4nonc4nc3Nc3cccc(Cl)c3)o2)c1 : < 1000 nM
2. Cc1cc(C)c([N+](=O)[O-])cc1-c1ccc(C=NNc2nc3nonc3nc2Nc2ccccc2F)o1 : < 1000 nM
3. O=C(O)c1ccc(-c2ccc(C=NNc3nc4nonc4nc3Nc3ccc(F)cc3)o2)cc1 : < 1000 nM
4. Fc1ccc(Nc2nc3nonc3nc2NN=Cc2ccc(-c3ccc(Cl)cc3Cl)o2)cc1 : < 1000 nM
5. O=C1Nc2ccccc2C1=NNc1nc2nonc2nc1Nc1ccc(Cl)c(Cl)c1 : < 1000 nM
6. O=c1[nH]c2ccc(Nc3nc4nonc4nc3NN=Cc3cc(I)cc(I)c3OCc3ccc(Cl)cc3Cl)cc2[nH]1 : < 1000 nM

What does the record list as IC50 for Fc1ccc(Nc2nc3nonc3nc2NN=Cc2ccc(-c3ccc(Cl)cc3)o2)cc1Cl ?
< 1000 nM

Now give it for O=[N+]([O-])c1cc(-c2ccc(C=NNc3nc4nonc4nc3Nc3cccc(C(F)(F)F)c3)o2)ccc1Cl too.
< 1000 nM

Now give it for Oc1c(Br)cc(Br)cc1C=NNc1nc2nonc2nc1Nc1ccc(Cl)cc1 too.
< 1000 nM

Now give it for O=C(O)c1ccc(-c2ccc(C=NNc3nc4nonc4nc3Nc3ccc(Cl)c(Cl)c3)o2)cc1 too.
< 1000 nM

Now give it for COc1cc(C=NNc2nc3nonc3nc2Nc2ccccc2F)cc([N+](=O)[O-])c1O too.
< 1000 nM

Now give it for O=C(O)c1cc(-c2ccc(C=NNc3nc4nonc4nc3Nc3ccccc3F)o2)ccc1O too.
< 1000 nM

====

- tested.target: UniProt P12931
- assay.procedure: 33PanQinase protein kinase activity assay, SRC
- experimental.setup: recombinant human kinase, 1 μM ATP
pIC50: −log10 of the molar value.
value.kind: pIC50

Worked set:
1) O=C(O)c1cc(-c2ccc(C=NNc3nc4nonc4nc3Nc3ccc(Cl)c(Cl)c3)o2)ccc1Cl : > 6.00
2) Clc1ccc(Nc2nc3nonc3nc2NN=Cc2ccco2)cc1Cl : > 6.00
3) O=[N+]([O-])c1cccc(-c2ccc(C=NNc3nc4nonc4nc3Nc3ccc(F)cc3)o2)c1 : > 6.00
4) Fc1ccc(Nc2nc3nonc3nc2NN=Cc2cc3ccccc3o2)cc1Cl : > 6.00
5) O=C(O)c1cccc(-c2ccc(C=NNc3nc4nonc4nc3Nc3ccc(F)c(Cl)c3)o2)c1 : > 6.00
6) Fc1ccc(Nc2nc3nonc3nc2NN=Cc2ccc(-c3ccccc3)o2)cc1Cl : > 6.00
7) Clc1ccc(Nc2nc3nonc3nc2NN=Cc2cc3ccccc3o2)cc1Cl : > 6.00

// moving on: another record for pIC50
What does the record list as pIC50 for NC(=O)c1cccc(-c2ccc(C=NNc3nc4nonc4nc3Nc3ccc(F)c(Cl)c3)o2)c1 ?
> 6.00

====

- tested.target: VEGF-R2 (Homo sapiens, UniProt P35968)
- Sequence (P35968 20-1356): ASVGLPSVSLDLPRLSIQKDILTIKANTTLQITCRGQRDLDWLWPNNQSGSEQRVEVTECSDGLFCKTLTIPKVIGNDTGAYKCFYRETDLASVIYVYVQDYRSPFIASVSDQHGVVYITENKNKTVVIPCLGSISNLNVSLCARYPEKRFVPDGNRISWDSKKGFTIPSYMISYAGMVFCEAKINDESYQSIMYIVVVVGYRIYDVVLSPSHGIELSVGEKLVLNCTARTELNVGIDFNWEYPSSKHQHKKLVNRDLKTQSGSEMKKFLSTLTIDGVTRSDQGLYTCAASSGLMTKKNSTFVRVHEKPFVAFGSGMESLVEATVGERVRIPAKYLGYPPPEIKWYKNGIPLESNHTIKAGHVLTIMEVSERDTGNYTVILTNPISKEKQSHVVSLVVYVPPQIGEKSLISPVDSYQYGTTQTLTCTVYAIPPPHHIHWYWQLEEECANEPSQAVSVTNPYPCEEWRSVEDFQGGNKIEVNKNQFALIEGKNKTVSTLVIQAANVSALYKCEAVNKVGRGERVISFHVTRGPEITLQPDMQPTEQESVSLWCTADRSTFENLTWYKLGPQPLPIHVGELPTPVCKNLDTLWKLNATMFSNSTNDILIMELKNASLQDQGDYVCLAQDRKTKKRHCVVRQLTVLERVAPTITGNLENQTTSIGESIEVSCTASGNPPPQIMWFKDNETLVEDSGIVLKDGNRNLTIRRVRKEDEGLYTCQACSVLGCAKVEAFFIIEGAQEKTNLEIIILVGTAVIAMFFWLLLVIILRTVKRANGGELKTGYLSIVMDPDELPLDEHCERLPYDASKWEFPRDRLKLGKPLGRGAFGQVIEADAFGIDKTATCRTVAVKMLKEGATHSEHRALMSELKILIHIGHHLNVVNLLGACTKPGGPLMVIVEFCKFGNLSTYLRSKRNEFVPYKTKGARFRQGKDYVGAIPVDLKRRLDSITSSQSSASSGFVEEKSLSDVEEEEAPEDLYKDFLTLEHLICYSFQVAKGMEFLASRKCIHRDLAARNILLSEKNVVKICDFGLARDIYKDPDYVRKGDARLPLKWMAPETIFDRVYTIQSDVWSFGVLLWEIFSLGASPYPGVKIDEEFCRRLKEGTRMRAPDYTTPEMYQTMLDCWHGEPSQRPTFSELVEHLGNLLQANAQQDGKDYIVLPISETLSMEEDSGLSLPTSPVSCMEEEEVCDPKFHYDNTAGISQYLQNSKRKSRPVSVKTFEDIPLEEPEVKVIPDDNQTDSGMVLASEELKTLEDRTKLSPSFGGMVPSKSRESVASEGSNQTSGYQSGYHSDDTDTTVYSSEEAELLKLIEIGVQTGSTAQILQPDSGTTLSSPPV
- assay.procedure: 33PanQinase protein kinase activity assay, VEGF-R2
- experimental.setup: recombinant human kinase, 1 μM ATP
Collected IC50 values appear next to each entry.

Worked set:
1. Oc1c(I)cc(I)cc1C=NNc1nc2nonc2nc1Nc1cccc(Br)c1 : < 2000 nM
2. NC(=O)c1cccc(-c2ccc(C=NNc3nc4nonc4nc3Nc3ccc(Cl)c(Cl)c3)o2)c1 : < 2000 nM
3. O=[N+]([O-])c1cccc(-c2ccc(C=NNc3nc4nonc4nc3Nc3ccc(F)c(Cl)c3)o2)c1 : < 2000 nM

What does the record list as IC50 for O=C(O)c1cccc(-c2ccc(C=NNc3nc4nonc4nc3Nc3ccc(Cl)c(Cl)c3)o2)c1 ?
< 2000 nM
